B1: PLAGL1 (parent)
chain: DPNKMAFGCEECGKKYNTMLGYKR

variants of: B1; test: protein stability index of a GFP-peptide fusion (GPS, HEK-293T) (PSI 1-6); higher = more stable; details: c terminus: a fixed tail appended;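 also: lentivirally expressed fusions sorted by FACS into six bins by GFP to DsRed ratio, PSI derived from sequencing read proportions per bin multiplied by bin number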
Use 2 as the dividing line for protein stability index, with the line itself on the T side and lower values as F.

Please review the entries below; each comes with its answer.
{"columns": ["MUTANT_LABEL", "CLASS_LABEL"],
 "data": [
  ["F7W", "F"],
  ["P2Q", "F"],
  ["M19E", "T"],
  ["G13T", "T"],
  ["N3L", "T"],
  ["N3K", "T"],
  ["A6C", "T"],
  ["N17G", "F"]
]}

Lab note: next variant to report on.
Query :: Is protein stability index for `E10Q` at or above 2?
Result :: T

The reported measurements were obtained from the supplement of paper PMC10567573.
